# TESTED ON: human AXL (473-end) (Homo sapiens, UniProt P30530)
# Construct: human AXL (473-end); purchased SignalChem, Canada
# Sequence (P30530 473-894 limits assumed): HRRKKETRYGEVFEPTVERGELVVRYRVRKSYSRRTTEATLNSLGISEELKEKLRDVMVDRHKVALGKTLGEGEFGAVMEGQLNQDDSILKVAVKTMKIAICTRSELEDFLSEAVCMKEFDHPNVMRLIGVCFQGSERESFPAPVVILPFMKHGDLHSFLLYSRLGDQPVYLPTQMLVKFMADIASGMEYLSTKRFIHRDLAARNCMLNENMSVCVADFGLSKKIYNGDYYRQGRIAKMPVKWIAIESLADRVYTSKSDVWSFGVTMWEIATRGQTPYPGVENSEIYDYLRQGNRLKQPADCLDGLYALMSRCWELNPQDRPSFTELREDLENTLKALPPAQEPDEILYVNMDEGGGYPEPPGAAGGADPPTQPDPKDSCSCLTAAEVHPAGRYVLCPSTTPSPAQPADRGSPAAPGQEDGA
# METHOD NOTES: HTRF kinase activity biochemical assay, AXL
# RUN CONDITIONS: 10 μM ATP, 30 minutes pre-incubation
pIC50: −log10 of the molar value.
Listed here are compounds together with their documented pIC50.
MEASURE NAME: pIC50

INSERT INTO results (compound, measure_name, experimental_result) VALUES
  ('Cn1cc(-c2cnc(N)c(C(=O)N[C@H]3CCC[C@@H]3OCc3ccc(-c4ccc5c(ccn5C5CCN(C(=O)OC(C)(C)C)CC5)c4)cc3)c2)cn1', 'pIC50', '6.00 to 7.00'),
  ('Nc1ncc(-c2cccnc2F)cc1C(=O)N[C@H]1CCC[C@@H]1OCc1ccc(-c2ccc3c(c2)CC[C@@H]3N2CCN(C[C@@H](O)CO)CC2)cc1', 'pIC50', '> 8.00'),
  ('Cn1cc(-c2cnc(N)c(C(=O)N[C@H]3CCC[C@@H]3OCc3ccc(-c4ccc5c(c4)C(C)(C)CN5C4CCN(CC(O)CO)CC4)cc3)c2)cn1 (stereo partly shown)', 'pIC50', '> 8.00'),
  ('Cn1cc(-c2cnc(N)c(C(=O)N[C@H]3CCC[C@@H]3OCc3ccc(-c4ccc5c(N6CCN(CCO)CC6)coc5c4)cc3)c2)cn1', 'pIC50', '6.00 to 7.00');
